Attribution: PubChem BioAssay

- Test system: Noggin (protein binding on small-molecule microarray)
- Test Description: Noggin binders on small-molecule microarray, primary screen, biochemical, 635/667 nm fluorescence (AID 1095);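 note: score merges 667 nm feature fluorescence with signal to noise over triplicate slides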
- Run Parameters: 635 nm fluorescence, higher = more signal
Decide by composite z-score: equal to or exceeding 0.5 means MET, less means NOT MET.

Check this molecule for composite z-score at or above 0.5: CN1C(=O)C2C(C1=O)C1C=C(CCCO)C2C(c2cccs2)N1C (stereo not drawn) NOT MET

====

- Test Description: binders of probe aFSTL3 on microarray, primary screen, stem cell growth factor project, biochemical, small-molecule microarray, fluorescence 635/667 (AID 1064);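 note: measures binding of the biotinylated anti-FSTL3 antibody to printed compounds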
- Run Parameters: higher = more signal
Would you kindly list composite z-score for each of these compounds?
Answers are plain numbers.

{"columns": ["Compound", "composite z-score"],
 "data": [
  ["O=C1C2C=CC(C(O)c3ccc(B(O)O)cc3)N(Nc3ccccc3)C2C(=O)N1c1ccccc1 (stereo not given)", 0.72],
  ["CC(C)N1CC=CC23O[C@@H]4C=CCOC(=O)[C@@H]4[C@H]2C(=O)N(CCO)[C@@H]3C1=O (stereo not given in full)", 0.283],
  ["CN1CCC(CCCO)=CC1c1ccc(CN2CCCC2)cc1 (stereo not given)", 1.16],
  ["CC(=O)NCCCC[C@@H]1NC(=O)[C@@H]2C[C@H](C(=O)NCCCCN(C)C)[C@H](c3ccc(O)cc3)N2C1=O", 0.641]
]}

Shifting focus to the compound that follows.
Fill in the blank: the reported composite z-score of [N-]=[N+]=NCc1ccccc1C[C@]1(C(=O)O)N=C(c2ccc(OCCCO)cc2)O[C@H]1c1ccccc1CN=[N+]=[N-] is ____. -0.0279
